Numbers sourced from ChEMBL document CHEMBL2176881.

# pIC50 measurements, system: UniProtKB P23385
# Sequence (P23385 whole entry): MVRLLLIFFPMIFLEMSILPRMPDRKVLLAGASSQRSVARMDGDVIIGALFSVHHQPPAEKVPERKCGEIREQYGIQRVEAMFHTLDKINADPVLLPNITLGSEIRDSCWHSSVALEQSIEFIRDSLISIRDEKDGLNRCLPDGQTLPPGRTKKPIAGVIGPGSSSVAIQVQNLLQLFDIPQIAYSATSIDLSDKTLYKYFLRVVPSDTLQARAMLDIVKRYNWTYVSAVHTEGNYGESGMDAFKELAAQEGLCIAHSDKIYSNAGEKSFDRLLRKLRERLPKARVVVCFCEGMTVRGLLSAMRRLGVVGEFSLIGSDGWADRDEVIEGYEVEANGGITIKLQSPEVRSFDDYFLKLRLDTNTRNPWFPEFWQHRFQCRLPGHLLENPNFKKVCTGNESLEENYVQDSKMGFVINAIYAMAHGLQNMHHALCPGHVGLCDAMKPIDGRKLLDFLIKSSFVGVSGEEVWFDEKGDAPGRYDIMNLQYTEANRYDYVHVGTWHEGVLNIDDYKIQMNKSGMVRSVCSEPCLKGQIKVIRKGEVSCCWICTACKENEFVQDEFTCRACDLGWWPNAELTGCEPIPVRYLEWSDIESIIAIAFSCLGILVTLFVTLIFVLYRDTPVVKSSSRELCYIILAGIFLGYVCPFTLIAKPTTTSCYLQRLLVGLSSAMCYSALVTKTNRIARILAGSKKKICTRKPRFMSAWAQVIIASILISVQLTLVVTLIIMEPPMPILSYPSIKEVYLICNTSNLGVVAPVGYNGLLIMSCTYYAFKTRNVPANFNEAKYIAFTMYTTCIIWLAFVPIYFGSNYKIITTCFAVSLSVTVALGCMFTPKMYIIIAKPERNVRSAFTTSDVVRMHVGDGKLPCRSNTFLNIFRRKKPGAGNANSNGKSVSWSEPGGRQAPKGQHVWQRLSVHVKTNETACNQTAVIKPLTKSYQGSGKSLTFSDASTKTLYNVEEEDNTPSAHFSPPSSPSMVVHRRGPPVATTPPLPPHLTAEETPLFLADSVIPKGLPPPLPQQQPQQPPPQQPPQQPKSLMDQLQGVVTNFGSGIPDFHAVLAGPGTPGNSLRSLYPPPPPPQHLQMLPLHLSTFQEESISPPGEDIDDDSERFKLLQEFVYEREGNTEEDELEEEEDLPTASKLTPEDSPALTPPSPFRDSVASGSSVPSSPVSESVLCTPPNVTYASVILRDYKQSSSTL
pIC50: −log10 of the molar value.

# Molecule, Target system, pIC50
rows = [
    ("CC(C)Nc1cc(-c2csc(N(C)C(=O)c3ccc(C#N)cc3)n2)ncn1", "UniProtKB P23385", 7.19),
    ("CC(C)Nc1cc(-c2csc(N(C)C(=O)c3ccc(Cl)cc3)n2)ncn1", "UniProtKB P23385", 7.33),
]

###

test: Metabolic stability in Sprague-Dawley plasma assessed as unchanged drug level at 37 MBq/0.1 mL, iv after 60 mins; format: ADME, organism-based; conditions: rat, read-out: Stability

# Molecule, Unit abbreviation, remaining at 1 h
data = [
    ("CC(C)Nc1cc(-c2csc(N(C)C(=O)c3ccc([14CH3])cc3)n2)ncn1", "%", 33.9),
]
